- MEASURED ON: human CD33 N20V (human, UniProt P20138 18-364)
- Sequence (P20138 18-364 N20V limits assumed): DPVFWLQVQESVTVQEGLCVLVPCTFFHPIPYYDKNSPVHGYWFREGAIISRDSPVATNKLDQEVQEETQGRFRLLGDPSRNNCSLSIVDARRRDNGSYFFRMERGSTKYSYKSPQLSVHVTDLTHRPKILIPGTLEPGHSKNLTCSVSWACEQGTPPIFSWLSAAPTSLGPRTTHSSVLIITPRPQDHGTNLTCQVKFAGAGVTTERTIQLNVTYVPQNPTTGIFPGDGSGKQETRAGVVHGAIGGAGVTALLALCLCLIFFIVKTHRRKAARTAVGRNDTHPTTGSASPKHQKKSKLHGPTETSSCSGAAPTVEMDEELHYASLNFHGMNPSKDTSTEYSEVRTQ
- ASSAY DETAILS: flow cytometry, mutant on cells, IgG
MEASURED ATTRIBUTE: Mean % WT Binding (% WT binding)
Give bare numbers, in % WT binding.

Can you share its Mean % WT Binding? I mean this binder: Refmab #4 (antibody, human IgG1, V domains shown, Tested in IgG format; human IgG1 Fc silent (PG-LALA)) VH: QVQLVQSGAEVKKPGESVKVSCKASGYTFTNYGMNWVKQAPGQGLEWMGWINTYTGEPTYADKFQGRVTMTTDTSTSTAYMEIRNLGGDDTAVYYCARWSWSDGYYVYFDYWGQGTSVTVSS VL: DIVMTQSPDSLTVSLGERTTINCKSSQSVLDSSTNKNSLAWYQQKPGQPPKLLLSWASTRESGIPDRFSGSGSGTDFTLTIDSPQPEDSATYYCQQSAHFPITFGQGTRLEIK
118
